- assay target: Amine oxidase [flavin-containing] A (Rattus norvegicus)
- Sequence (P21396 whole entry): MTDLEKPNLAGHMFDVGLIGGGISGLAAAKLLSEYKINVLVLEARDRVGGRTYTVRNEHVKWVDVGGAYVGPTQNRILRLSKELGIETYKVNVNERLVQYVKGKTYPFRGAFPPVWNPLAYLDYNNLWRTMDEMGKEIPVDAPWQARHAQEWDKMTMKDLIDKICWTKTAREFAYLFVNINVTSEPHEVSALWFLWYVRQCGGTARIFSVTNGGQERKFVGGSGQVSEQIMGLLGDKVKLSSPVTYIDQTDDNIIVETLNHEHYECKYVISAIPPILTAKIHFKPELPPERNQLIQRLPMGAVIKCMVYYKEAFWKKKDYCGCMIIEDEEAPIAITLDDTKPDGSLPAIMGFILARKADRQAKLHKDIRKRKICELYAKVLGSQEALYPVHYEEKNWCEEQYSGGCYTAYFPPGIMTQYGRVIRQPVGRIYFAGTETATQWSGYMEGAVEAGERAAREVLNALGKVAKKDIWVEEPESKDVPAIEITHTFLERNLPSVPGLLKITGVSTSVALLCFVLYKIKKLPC
- method notes: Inhibition of MAO-A in rat liver assessed as inhibition of [14C]5-HT oxidation
Can you tell me IC50 for the items I'm about to list?
Numbers only, in nM.

Use the examples below as a reference point.
> print(dat)
                                   compound  property.label  endpoint.value
1  Nc1cccc(-c2ccc(C3=NCCN3)o2)c1 [AMIFURALINE]            IC50             600
2            OCc1ccc(-c2ccc(C3=NCCN3)o2)cc1            IC50            1200

Now for the compound whose IC50 we want.
API: value(readout= IC50, system= Amine oxidase [flavin-containing] A (Rattus norvegicus), query= `c1ccc(-c2ccc(C3=NCCN3)cn2)cc1` )
1800

----------
Exercise: state measured Log Ki for each of the compounds provided.
- assay target: Monoamine oxidase (Rattus norvegicus, UniProt P19643+P21396)
- method notes: Binding affinity to I2-IBS, imidazoline binding site of MAO
- Format: functional
Numbers only.

Solved entries:
> print(dat)
                                   compound  property.label  endpoint.value
1                 C1=C(C2=NCCN2)CCc2ccccc21          Log Ki           -7.95
2  c1ccc([C@H]2O[C@@H]2C2=NCCN2)cc1 (relative stereo)          Log Ki           -7.55
3   c1ccc(-c2ccc(C3=NCCN3)o2)cc1 [FURALINE]          Log Ki           -7.68

Consider the additional compound presented here.
Reported Log Ki, compound C(=C\c1ccccc1)/C1=NCCN1 [TRACIZOLINE] : ____
-8.72

----------
- assay target: Amine oxidase [flavin-containing] B (Rattus norvegicus, UniProt P19643)
- Sequence (P19643 whole entry): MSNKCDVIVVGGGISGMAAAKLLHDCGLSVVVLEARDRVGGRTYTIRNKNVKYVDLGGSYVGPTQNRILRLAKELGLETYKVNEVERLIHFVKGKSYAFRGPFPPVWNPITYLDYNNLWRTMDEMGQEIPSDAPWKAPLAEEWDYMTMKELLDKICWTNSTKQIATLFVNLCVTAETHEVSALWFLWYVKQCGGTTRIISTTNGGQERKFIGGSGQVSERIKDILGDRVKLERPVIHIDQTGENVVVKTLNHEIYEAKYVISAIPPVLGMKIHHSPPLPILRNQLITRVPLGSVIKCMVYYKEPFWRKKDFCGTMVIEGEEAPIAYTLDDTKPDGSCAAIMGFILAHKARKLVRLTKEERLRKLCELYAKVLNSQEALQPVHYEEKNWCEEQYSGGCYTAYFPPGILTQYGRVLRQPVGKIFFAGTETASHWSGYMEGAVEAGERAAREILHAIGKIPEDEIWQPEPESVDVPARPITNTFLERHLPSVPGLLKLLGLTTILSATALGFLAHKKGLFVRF
- method notes: Inhibition of MAO-B in rat liver assessed as inhibition of [14C]PEA oxidation in presence of 0.1 uM clorgyline
property label: IC50 (µM)
Answers are plain numbers, in µM.

Consider the compound shown here: Nc1cccc(-c2ccc(C3=NCCN3)o2)c1 [AMIFURALINE] What is its recorded IC50?
19.1
